Reported Kd values are given for each entry in this list.
- target: UNC119A, full-length, C-terminal His6 (human, UniProt Q13432 1-240)
- experiment: fluorescence polarisation
No end group written: not given here. *: point of attachment. Myristoyl = CCCCCCCCCCCCCC(=O)*
reported-endpoint: Kd (nM)

binder | result-value
Myristoyl-GTASSLVSPAGGK(FAM) [NPHP3 peptide Myr-GTASSLVSPAGGK-FAM] | 0.84
Myristoyl-GGAVSAGEDNDDK(FAM) [PCMTD1 peptide Myr-GGAVSAGEDNDDK-FAM] | 5.25
